Measured values drawn from paper PMC9635925 for this set.

biological target: MRGPRX2-WT (wild-type MRGPRX2 receptor) (Homo sapiens); construct: expressed in transfected cells; assay: Primary HTS, Ca2+ mobilization (fluorescence ratio, B-score) in HEK293-Gα15 cells stably expressing wild-type MRGPRX2; format: cell-based; settings: 10 μM compound, Table 1
Sequence (Q96LB1 whole entry): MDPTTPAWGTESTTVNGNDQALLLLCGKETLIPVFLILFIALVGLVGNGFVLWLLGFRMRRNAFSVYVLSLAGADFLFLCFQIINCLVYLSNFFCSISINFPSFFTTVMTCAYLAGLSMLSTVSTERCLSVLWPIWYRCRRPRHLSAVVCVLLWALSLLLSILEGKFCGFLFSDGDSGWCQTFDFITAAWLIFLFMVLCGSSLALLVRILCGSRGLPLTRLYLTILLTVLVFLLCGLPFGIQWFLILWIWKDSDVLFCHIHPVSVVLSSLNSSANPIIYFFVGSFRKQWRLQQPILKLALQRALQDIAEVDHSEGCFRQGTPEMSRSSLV
Structures can show the parent of a compound that is named as a salt.
Criterion: B-scores (WT) meeting or surpassing 30. Met: true (1). Not met: false (0).

Does B-scores (WT) meet or surpass 30 for CO[C@H]1/C=C/O[C@@]2(C)Oc3c(C)c(O)c4c(O)c(c(/C=N/N5CCN(C)CC5)c(O)c4c3C2=O)NC(=O)/C(C)=C\C=C\[C@H](C)[C@H](O)[C@@H](C)[C@@H](O)[C@@H](C)[C@H](OC(C)=O)[C@@H]1C [Rifampin] ?
false (0)

Does B-scores (WT) meet or surpass 30 for CN1CCC(=C2c3ccccc3C=Cc3ccccc32)CC1 [Cyproheptadine Hydrochloride] ?
true (1)

Does B-scores (WT) meet or surpass 30 for C[C@@H](Oc1cc(-c2cnn(C3CCNCC3)c2)cnc1N)c1c(Cl)ccc(F)c1Cl [Crizotinib] ?
false (0)

Does B-scores (WT) meet or surpass 30 for CN(C)CCCN1c2ccccc2Sc2ccccc21 [Promazine Hydrochloride] ?
false (0)

Does B-scores (WT) meet or surpass 30 for CN(C)CCN1C(=O)c2ccccc2N(C)c2ccccc21 [Dibenzepin] ?
false (0)

Next:
Does B-scores (WT) meet or surpass 30 for CN(C)CC[C@@H](c1ccc(Cl)cc1)c1ccccn1 [Dexchlorpheniramine Maleate] ?
false (0)

Does B-scores (WT) meet or surpass 30 for CN(C)CCOC(c1ccc(Cl)cc1)c1ccccn1 (stereo not drawn) [Carbinoxamine Maleate] ?
true (1)

Does B-scores (WT) meet or surpass 30 for C[C@H]1COc2c(N3CCN(C)CC3)c(F)cc3c(=O)c(C(=O)O)cn1c23 [Levofloxacin] ?
true (1)

Does B-scores (WT) meet or surpass 30 for CC(CN(C)C)CN1c2ccccc2CCc2ccccc21 (stereo not drawn) [Trimipramine Maleate] ?
false (0)

Does B-scores (WT) meet or surpass 30 for CNCCC(Oc1ccc(C(F)(F)F)cc1)c1ccccc1 (stereo not drawn) [Fluoxetine] ?
true (1)

Does B-scores (WT) meet or surpass 30 for CN1CCC(=C2c3ccccc3CC(=O)c3sccc32)CC1 [Ketotifen Fumarate] ?
false (0)

Does B-scores (WT) meet or surpass 30 for CN1CCN(c2c(F)cc3c(=O)c(C(=O)O)cn4c3c2SCC4)CC1.Cl [Rufloxacin Hydrochloride] ?
false (0)

Does B-scores (WT) meet or surpass 30 for CN(C)CCC(c1ccc(Br)cc1)c1ccccn1 (stereo not drawn) [Brompheniramine Maleate] ?
true (1)

Does B-scores (WT) meet or surpass 30 for CNCCCC1c2ccccc2C=Cc2ccccc21 [Protriptyline Hydrochloride] ?
false (0)

Does B-scores (WT) meet or surpass 30 for Cc1ccc(NC(=O)c2ccc(CN3CCN(C)CC3)cc2)cc1Nc1nc(-c2cccnc2)cs1 [Masitinib] ?
false (0)

Does B-scores (WT) meet or surpass 30 for CN1CCc2c(c3ccccc3n2Cc2ccccc2)C1.CN1CCc2c(c3ccccc3n2Cc2ccccc2)C1.O=S(=O)(O)c1cccc2c(S(=O)(=O)O)cccc12 [Mebhydrolin Naphthalenesulfonate] ?
false (0)

Does B-scores (WT) meet or surpass 30 for CCn1cc(C(=O)O)c(=O)c2cc(F)c(N3CCNCC3)cc21 [Norfloxacin] ?
false (0)

Does B-scores (WT) meet or surpass 30 for CN(C)CCCN1c2ccccc2CCc2ccccc21 [Imipramine Hydrochloride] ?
true (1)
